Where do these numbers come from? They come from patent US20250332266A1.

tested system: EGFR L858R (BaF3-L858R) (Homo sapiens, UniProt P00533, L858R)
Construct: host or cells: BaF3
Sequence (P00533 25-1210 L858R): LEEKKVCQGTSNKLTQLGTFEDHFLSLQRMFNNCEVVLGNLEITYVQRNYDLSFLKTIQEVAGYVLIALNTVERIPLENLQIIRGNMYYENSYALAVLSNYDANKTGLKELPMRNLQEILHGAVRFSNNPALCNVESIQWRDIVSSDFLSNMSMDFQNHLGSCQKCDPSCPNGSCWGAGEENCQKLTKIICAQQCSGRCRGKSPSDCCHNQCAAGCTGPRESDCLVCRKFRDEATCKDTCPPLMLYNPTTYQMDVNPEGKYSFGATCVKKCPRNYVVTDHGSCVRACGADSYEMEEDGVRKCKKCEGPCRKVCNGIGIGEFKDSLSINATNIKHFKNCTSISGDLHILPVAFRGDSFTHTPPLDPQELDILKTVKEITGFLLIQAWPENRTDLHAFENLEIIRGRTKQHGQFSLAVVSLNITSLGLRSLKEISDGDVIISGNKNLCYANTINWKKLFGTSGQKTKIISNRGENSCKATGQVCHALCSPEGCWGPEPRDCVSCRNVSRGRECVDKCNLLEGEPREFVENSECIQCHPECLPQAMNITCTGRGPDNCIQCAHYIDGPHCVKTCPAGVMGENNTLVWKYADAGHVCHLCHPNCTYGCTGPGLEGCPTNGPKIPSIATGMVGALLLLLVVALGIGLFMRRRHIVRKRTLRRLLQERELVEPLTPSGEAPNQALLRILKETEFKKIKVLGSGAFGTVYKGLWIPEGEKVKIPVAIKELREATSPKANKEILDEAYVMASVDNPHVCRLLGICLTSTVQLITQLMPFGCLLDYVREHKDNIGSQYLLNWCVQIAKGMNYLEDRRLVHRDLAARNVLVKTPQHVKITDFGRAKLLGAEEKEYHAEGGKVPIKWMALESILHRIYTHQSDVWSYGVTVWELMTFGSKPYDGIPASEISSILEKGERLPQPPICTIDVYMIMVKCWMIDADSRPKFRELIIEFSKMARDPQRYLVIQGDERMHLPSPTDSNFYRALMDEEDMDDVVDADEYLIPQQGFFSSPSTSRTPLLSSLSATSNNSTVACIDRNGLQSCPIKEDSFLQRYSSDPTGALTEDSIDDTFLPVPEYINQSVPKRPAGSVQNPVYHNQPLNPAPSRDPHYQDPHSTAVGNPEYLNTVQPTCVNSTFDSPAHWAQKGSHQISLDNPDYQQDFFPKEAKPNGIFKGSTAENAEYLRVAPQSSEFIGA
protocol notes: EGFR degradation, HTRF total-EGFR assay, BaF3-L858R cells
Type: cell-based
condition label: 16 h treatment
Answer each item with its documented Dmax.
Answers are plain numbers, in %.

Example results:
CCc1nc(C2CCC(=O)NC2=O)ccc1N1CCC(N2CCN(c3ccc4c(c3)N3C[C@H]5C[C@@H](COc6c(cnn6C)-c6cc(cc(C)n6)C(=O)/N=C/3N4)C5)CC2)CC1 (some centres unmarked) [Example 140] :: 90.6
Cc1cc2cc(n1)-c1cnn(C)c1OC[C@H]1C[C@@H](CN3/C(=N/C2=O)Nc2ccc(N4CCN(C5CN(C6CCN(c7cc(F)c([C@H]8CCC(=O)NC8=O)c(F)c7)CC6)C5)C[C@H]4C)cc23)C1 [Example 148] :: 80
Cc1cc2cc(n1)-c1cnn(C)c1OC[C@H]1C[C@@H](CN3/C(=N/C2=O)Nc2ccc(N4CCN(C5CN(CCc6c(C)cc(C7CCC(=O)NC7=O)nc6C)C5)CC4)cc23)C1 (some centres unmarked) [Example 150] :: 73.5
Cc1cc2cc(n1)-c1cnn(C)c1OC[C@H]1C[C@@H](CN3/C(=N/C2=O)Nc2ccc(N4CCN(C5CCN(c6cc(F)c(C7CCC(=O)NC7=O)nc6C)CC5)CC4)cc23)C1 (some centres unmarked) [Example 142] :: 76.2
CCc1cc(C2CCC(=O)NC2=O)ncc1N1CCC(N2CC(N3CCN(c4ccc5c(c4)N4C[C@H]6C[C@@H](COc7c(cnn7C)-c7cc(cc(C)n7)C(=O)/N=C/4N5)C6)CC3)C2)CC1 (some centres unmarked) [Example 143] :: 75.8
CCc1nc(C2CCC(=O)NC2=O)ccc1N1CCC(N2CC(N3CCN(c4ccc5c(c4)N4C[C@H]6C[C@@H](COc7c(cnn7C)-c7cc(cc(C)n7)C(=O)/N=C/4N5)C6)CC3)C2)CC1 (some centres unmarked) [Example 149] :: 71.1
Cc1cc2cc(n1)-c1cnn(C)c1OC[C@H]1C[C@@H](CN3/C(=N/C2=O)Nc2ccc(N4C[C@H](C)N(C5CCN(c6ccc(C7CCC(=O)NC7=O)nc6C)CC5)C[C@@H]4C)cc23)C1 (some centres unmarked) [Example 139] :: 88.9

Query for EGFR L858R (BaF3-L858R) (Homo sapiens, UniProt P00533, L858R): what Dmax does the record show for Cc1cc2cc(n1)-c1cnn(C)c1OC[C@H]1C[C@@H](CN3/C(=N/C2=O)Nc2ccc(N4CCN(C5CCN(c6c(C)cc(C7CCC(=O)NC7=O)nc6C)CC5)CC4)cc23)C1 (some centres unmarked) [Example 141] ?
85.1
